Tested on: SKBR3 (PI3Kα-Wild Type) cell line
Experiment: HTRF phospho-AKT(S473) cell assay in SKBR3 cells
Type: cell-based, human
Conditions: Homo sapiens, SK-BR-3; HTRF phospho-AKT(S473), SKBR3 (PI3Kα-Wild Type) cells, 2 hours compound incubation, PDGF-BB stimulated
Description: Compounds in the present disclosure were tested in a cell based HTRF phospho-AKT(S473) (CisBio/Revvity) assay in human breast cancer cell lines as a measurement of PIK3CA activity through measuring AKT, a downstream effector. The activity of mutant PI3Kα-H1047R and PI3Kα-Wild Type was measured in the T47D (PI3Kα-H1047R) and SKBR3 (PI3Kα-Wild Type) cell lines, respectively. […] The following day, plates were centrifuged for 1 minute at 1000 rpm, and read on a PHERAstar plate reader. […]
observed-property: IC50

| compound | measured-target | IC50 |
| --- | --- | --- |
| Cc1cc([C@@H](C)Nc2ccc(Cl)nc2C(=O)NS(C)(=O)=O)c2nc(N3CC[C@@H](Oc4cncnc4)C3)n(C)c(=O)c2c1 [Compound 707] | SKBR3 (PI3Kα-Wild Type) cell line | 1 to 5 µM |
| Cc1cc([C@@H](C)Nc2ccc(Cl)nc2C(=O)NS(C)(=O)=O)c2nc(N3C[C@@H]4[C@H](C3)[C@H]4c3cc(C4CC4)[nH]n3)n(C)c(=O)c2c1 [Compound 524] | SKBR3 (PI3Kα-Wild Type) cell line | 1 to 5 µM |

## Task Any idea what IC50 was measured for Cc1cc([C@@H](C)Nc2ccc(Cl)nc2C(=O)NS(C)(=O)=O)c2nc(N3CCN(c4ncc(C#N)cn4)CC3)n(C)c(=O)c2c1 [Compound 531] ?
## Result 1 to 5 µM

## Task Please do the same for Cc1cc([C@@H](C)Nc2ccc(Cl)nc2C(=O)NS(C)(=O)=O)c2nc(N3CC[C@@H](c4ccnc(C)c4)C3)n(C)c(=O)c2c1 (relative stereo) [Compound 764] as well.
## Result 1 to 5 µM

## Task Please do the same for Cc1cc([C@@H](C)Nc2ccc(Cl)nc2C(=O)NS(C)(=O)=O)c2nc(N3[C@@H]4CC[C@H]3C[C@H](n3ncc5ccccc53)C4)n(C)c(=O)c2c1 [Compound 695] as well.
## Result ≥ 5 µM

## Task Please do the same for CC(=O)N1CC2CCC(C1)N2c1ccc(-c2nc3c([C@@H](C)Nc4ccc(Cl)nc4C(=O)NS(C)(=O)=O)cc(C)cc3c(=O)n2C)cc1F [Compound 801] as well.
## Result ≥ 5 µM

## Task Please do the same for Cc1cc([C@@H](C)Nc2ccc(Cl)nc2C(=O)NS(C)(=O)=O)c2nc(N3CCC(c4nc(C)co4)CC3)n(C)c(=O)c2c1 [Compound 545] as well.
## Result ≥ 5 µM

## Task Please do the same for Cc1cc([C@@H](C)Nc2ccc(Cl)nc2C(=O)NS(C)(=O)=O)c2nc(N3[C@@H]4CC[C@H]3C[C@H](n3cc(C)cn3)C4)n(C)c(=O)c2c1 [Compound 481] as well.
## Result 1 to 5 µM

## Task Please do the same for Cc1cc([C@@H](C)Nc2ccc(Cl)nc2C(=O)NS(C)(=O)=O)c2nc(N3C[C@@H]4[C@H](C3)[C@H]4c3nn(C)nc3C)n(C)c(=O)c2c1 [Compound 497] as well.
## Result 1 to 5 µM

## Task Please do the same for Cc1cc([C@@H](C)Nc2ccc(Cl)nc2C(=O)NS(C)(=O)=O)c2nc(N3CCC[C@H](c4c[nH]nc4C)C3)n(C)c(=O)c2c1 (relative stereo) [Compound 703] as well.
## Result ≥ 5 µM

## Task Please do the same for Cc1cc([C@@H](C)Nc2ccc(Cl)nc2C(=O)NS(C)(=O)=O)c2nc(N3CCC(c4nnc(C5CCC5)o4)CC3)n(C)c(=O)c2c1 [Compound 629] as well.
## Result 1 to 5 µM

## Task Please do the same for Cc1cc([C@@H](C)Nc2ccc(Cl)nc2C(=O)NS(C)(=O)=O)c2nc(N3CCC4(CCc5cn(C)nc54)CC3)n(C)c(=O)c2c1 [Compound 673] as well.
## Result ≥ 5 µM
